biological target: Alpha-glucosidase MAL12 (Saccharomyces cerevisiae (strain ATCC 204508 / S288c), UniProt P53341); assay: Inhibition Assay
Sequence (P53341 whole entry): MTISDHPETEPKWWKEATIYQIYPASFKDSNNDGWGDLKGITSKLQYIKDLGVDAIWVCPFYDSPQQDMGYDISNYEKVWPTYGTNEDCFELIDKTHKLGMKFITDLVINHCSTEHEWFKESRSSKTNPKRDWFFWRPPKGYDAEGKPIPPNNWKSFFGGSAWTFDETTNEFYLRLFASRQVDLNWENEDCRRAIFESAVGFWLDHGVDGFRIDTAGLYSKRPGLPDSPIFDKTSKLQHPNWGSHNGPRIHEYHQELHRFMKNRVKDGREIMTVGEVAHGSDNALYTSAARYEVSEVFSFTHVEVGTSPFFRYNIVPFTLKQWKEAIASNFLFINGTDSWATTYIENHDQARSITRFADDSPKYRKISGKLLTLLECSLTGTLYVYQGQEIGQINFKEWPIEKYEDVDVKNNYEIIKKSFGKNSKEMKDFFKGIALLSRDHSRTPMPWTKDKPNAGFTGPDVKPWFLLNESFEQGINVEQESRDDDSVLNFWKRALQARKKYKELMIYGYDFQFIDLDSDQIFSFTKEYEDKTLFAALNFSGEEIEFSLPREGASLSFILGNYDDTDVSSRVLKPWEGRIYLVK
Please use true for Ki under 10 µM and false for everything else, ties included.

Examples from the recorded data:
[
  {
    "Smiles": "Oc1ccc(/C=C/c2cc(O)cc(O)c2)cc1",
    "Discrete label": "false"
  },
  {
    "Smiles": "O=C(Nc1ccccc1)Nc1ccc(/C=C/c2ccc(O)c(O)c2)cc1",
    "Discrete label": "false"
  },
  {
    "Smiles": "O=C(Nc1ccc(/C=C/c2ccc(O)c(O)c2)cc1)Nc1ccc(C(F)(F)F)cc1",
    "Discrete label": "false"
  },
  {
    "Smiles": "O=C(Nc1ccc(F)cc1)Nc1ccc(/C=C/c2ccc(O)c(O)c2)cc1",
    "Discrete label": "true"
  },
  {
    "Smiles": "O=C(Nc1ccc(Cl)cc1)Nc1ccc(/C=C/c2ccc(O)c(O)c2)cc1",
    "Discrete label": "true"
  },
  {
    "Smiles": "COc1ccc(NC(=O)Nc2ccc(/C=C/c3ccc(O)c(O)c3)cc2)cc1",
    "Discrete label": "false"
  },
  {
    "Smiles": "O=C(Nc1ccc(/C=C/c2ccc(O)c(O)c2)cc1)Nc1ccc(F)cc1F",
    "Discrete label": "true"
  },
  {
    "Smiles": "O=C(Nc1ccc(/C=C/c2ccc(O)cc2)cc1)Nc1ccc(F)cc1F",
    "Discrete label": "true"
  }
]

Q: Ki under 10 µM? Item: O=C(Nc1ccccc1)Nc1ccc(/C=C/c2ccc(O)cc2)cc1
Result: false

----------
target: Alpha-glucosidase MAL12 (Saccharomyces cerevisiae (strain ATCC 204508 / S288c), UniProt P53341); assay: Inhibition Assay
IC50 reference

Recorded results for 3 molecules are shown here.
[
  {
    "Smiles": "CC(=O)Nc1ccc(/C=C/c2ccc(O)c(O)c2)cc1",
    "Result": "> 200 µM"
  },
  {
    "Smiles": "COc1ccc(NC(=O)Nc2ccc(/C=C/c3ccc(O)c(O)c3)cc2)cc1",
    "Result": "19.5 µM"
  },
  {
    "Smiles": "O=C(Nc1ccc(/C=C/c2cc(O)cc(O)c2)cc1)Nc1ccc(F)cc1F",
    "Result": "64.3 µM"
  }
]

Q: Assign IC50 to the following record: COc1ccc(NC(=O)Nc2ccc(/C=C/c3cc(O)cc(O)c3)cc2)cc1
Result: 105 µM

All figures here come from BindingDB's records for doi:10.1002/cbic.201000376.
